assay: Single-dose IV pharmacokinetics in male BALB/c mice; assay type: in vivo; settings: mouse, in vivo, 10 mg/kg
endpoint: clearance
# output: numeric value plus its unit

Enquiry: Consider the molecule CCCc1nn(C)c2c(-c3c[nH]c4ccc(Cl)cc34)nc(-c3ccc(Cl)cc3)nc12 and give its measured clearance.
Return: 35 mL/min/kg

###

assay: Single-dose oral pharmacokinetics in male BALB/c mice; settings: male, BALB/c, mouse, in vivo; oral 50 mg/kg
endpoint: AUC(0-t) (ng·h/mL)
Write it as a number; the unit ng·h/mL goes unstated.

Enquiry: What value of measured AUC(0-t) is listed for CCCc1nn(C)c2c(-c3c[nH]c4ccc(Cl)cc34)nc(-c3ccc(Cl)cc3)nc12 ?
Return: 19200

###

assay: Single-dose IV pharmacokinetics in male BALB/c mice; assay type: in vivo; settings: mouse, plasma, 10 mg/kg, IV 10 mg/kg
endpoint: half-life

Enquiry: Given CCCc1nn(C)c2c(-c3c[nH]c4ccc(Cl)cc34)nc(-c3ccc(Cl)cc3)nc12 [DRILS-1398] , state its recorded half-life.
Return: ~8.25 h

###

experiment: in vitro; assay type: in vitro ADME; conditions: mouse, plasma
endpoint: fraction unbound at 5 µM

Enquiry: // returns reported fraction unbound at 5 µM for input CCCc1nn(C)c2c(-c3c[nH]c4ccc(Cl)cc34)nc(-c3ccc(Cl)cc3)nc12
Return: ~0.0184

###

biological target: CYP 2C19 (Homo sapiens)
Sequence (P33261 whole entry): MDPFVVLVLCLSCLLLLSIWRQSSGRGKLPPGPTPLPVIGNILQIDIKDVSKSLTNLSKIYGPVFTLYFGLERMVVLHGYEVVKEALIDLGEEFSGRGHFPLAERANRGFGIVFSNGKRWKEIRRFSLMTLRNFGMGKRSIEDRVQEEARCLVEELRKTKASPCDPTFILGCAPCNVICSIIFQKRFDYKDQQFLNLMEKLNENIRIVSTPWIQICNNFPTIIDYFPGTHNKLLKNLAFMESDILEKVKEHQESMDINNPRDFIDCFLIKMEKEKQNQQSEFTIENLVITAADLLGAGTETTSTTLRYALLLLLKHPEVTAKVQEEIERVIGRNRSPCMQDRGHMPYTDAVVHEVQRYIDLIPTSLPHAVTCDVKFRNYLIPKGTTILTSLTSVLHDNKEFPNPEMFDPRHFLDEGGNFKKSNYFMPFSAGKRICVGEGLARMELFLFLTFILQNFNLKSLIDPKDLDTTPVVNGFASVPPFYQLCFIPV
endpoint: pIC50
Reminder that pIC50 is minus the log10 of a molar concentration.

Enquiry: What value of measured pIC50 is listed for CCCc1nn(C)c2c(-c3c[nH]c4ccc(Cl)cc34)nc(-c3ccc(Cl)cc3)nc12 ?
Return: 4.86

###

experiment: physchem
endpoint: solubility

Enquiry: Please report the recorded solubility for CCCc1nn(C)c2c(-c3c[nH]c4ccc(Cl)cc34)nc(-c3ccc(Cl)cc3)nc12 .
Return: ≥ 50 mg/mL

###

assay: Single-dose oral pharmacokinetics in male BALB/c mice; conditions: male, BALB/c, mouse, in vivo, po, 50 mg/kg
endpoint: MRT last
Please don't drop the unit; write it after the number.

Enquiry: Which value of MRT last has been reported for CCCc1nn(C)c2c(-c3c[nH]c4ccc(Cl)cc34)nc(-c3ccc(Cl)cc3)nc12 in the records?
Return: 7.52 h

###

molecular target: UniProt P10635
Sequence (P10635 whole entry): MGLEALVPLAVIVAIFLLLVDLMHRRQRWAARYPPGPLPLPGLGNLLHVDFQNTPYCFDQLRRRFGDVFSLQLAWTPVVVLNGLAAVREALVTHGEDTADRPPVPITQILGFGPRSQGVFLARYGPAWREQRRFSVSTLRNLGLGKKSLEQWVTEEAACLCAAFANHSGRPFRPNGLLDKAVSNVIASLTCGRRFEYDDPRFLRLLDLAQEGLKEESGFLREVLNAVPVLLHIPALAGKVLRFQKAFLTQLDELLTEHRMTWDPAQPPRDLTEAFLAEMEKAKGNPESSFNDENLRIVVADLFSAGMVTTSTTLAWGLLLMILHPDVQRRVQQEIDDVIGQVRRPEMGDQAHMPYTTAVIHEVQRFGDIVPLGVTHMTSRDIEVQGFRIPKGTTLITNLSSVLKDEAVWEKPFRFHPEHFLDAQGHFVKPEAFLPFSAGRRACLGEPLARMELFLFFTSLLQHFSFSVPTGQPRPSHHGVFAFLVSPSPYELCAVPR
endpoint: IC50

Enquiry: Please report the recorded IC50 for CCCc1nn(C)c2c(-c3c[nH]c4ccc(Cl)cc34)nc(-c3ccc(Cl)cc3)nc12 [DRILS-1398] .
Return: > 30 µM

###

target: CYP 3A4 (Homo sapiens)
Sequence (P08684 whole entry): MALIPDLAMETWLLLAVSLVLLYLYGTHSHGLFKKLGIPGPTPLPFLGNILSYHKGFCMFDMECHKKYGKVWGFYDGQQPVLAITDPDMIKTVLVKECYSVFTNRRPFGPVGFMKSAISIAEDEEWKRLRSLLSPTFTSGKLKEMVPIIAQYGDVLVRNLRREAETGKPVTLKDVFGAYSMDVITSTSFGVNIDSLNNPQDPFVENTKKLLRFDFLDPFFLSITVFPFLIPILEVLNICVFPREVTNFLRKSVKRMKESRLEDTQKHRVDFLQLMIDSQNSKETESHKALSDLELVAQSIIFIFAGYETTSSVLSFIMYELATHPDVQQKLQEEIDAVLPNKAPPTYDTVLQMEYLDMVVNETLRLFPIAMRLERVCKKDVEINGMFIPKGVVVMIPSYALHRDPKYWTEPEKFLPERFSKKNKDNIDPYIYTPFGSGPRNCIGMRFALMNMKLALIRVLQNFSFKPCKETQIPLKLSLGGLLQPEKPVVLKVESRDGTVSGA
endpoint: IC50

Enquiry: API: value(readout= IC50, system= CYP 3A4 (Homo sapiens), query= CCCc1nn(C)c2c(-c3c[nH]c4ccc(Cl)cc34)nc(-c3ccc(Cl)cc3)nc12 [DRILS-1398] )
Return: > 30 µM

###

biological target: CYP 1A2 (Homo sapiens)
Sequence (P05177 whole entry): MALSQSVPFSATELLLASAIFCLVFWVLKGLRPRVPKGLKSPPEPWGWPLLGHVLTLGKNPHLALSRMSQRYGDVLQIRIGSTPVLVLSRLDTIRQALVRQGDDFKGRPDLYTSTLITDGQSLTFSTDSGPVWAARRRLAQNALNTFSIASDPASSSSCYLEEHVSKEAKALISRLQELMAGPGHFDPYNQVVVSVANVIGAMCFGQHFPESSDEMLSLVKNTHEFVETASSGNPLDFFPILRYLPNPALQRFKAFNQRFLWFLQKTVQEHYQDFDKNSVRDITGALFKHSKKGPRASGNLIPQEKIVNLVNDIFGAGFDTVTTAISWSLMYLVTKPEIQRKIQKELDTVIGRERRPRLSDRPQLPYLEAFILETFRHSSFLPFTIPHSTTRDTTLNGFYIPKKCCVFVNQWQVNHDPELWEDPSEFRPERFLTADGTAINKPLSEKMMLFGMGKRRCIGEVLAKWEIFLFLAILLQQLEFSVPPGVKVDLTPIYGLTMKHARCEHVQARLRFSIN
pIC50: −log10 of the molar value.
endpoint: pIC50

Enquiry: Form field - read-out: pIC50; system: CYP 1A2 (Homo sapiens); submitted item: CCCc1nn(C)c2c(-c3c[nH]c4ccc(Cl)cc34)nc(-c3ccc(Cl)cc3)nc12
Return: < 4.52
